# assaySystem: CYP2B6 (Homo sapiens, UniProt P20813)
# Construct: using probe substrates for each CYP isoform and human liver microsomes
# Sequence (P20813 whole entry, canonical isoform): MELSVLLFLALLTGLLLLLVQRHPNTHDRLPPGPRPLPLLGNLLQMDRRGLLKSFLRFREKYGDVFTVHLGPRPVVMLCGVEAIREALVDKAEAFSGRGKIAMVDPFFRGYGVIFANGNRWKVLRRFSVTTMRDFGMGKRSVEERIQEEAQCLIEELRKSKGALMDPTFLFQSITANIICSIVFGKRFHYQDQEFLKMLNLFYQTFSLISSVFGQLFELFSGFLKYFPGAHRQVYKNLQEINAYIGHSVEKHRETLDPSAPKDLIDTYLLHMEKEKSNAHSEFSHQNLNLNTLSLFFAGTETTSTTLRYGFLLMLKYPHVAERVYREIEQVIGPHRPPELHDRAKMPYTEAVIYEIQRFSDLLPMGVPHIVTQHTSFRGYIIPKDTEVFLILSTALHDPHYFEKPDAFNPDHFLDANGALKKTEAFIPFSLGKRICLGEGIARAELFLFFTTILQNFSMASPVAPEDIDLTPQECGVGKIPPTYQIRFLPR
# experiment: CYP inhibition in human liver microsomes, CYP2B6
# runParameters: human liver microsomes 0.1 mg/mL; probe Bupropion, metabolite Hydroxybupropion
measuredAttribute: IC50

compound=N[C@]1(C(=O)O)[C@H]2[C@@H](C[C@@H]1F)[C@@H]2C(=O)O observedmeasurement="> 100 µM"

Consider the record given below.
Reported IC50 (CYP2B6 (Homo sapiens, UniProt P20813)) for entry CC(C)[C@@H]1CC[C@@H](C)C[C@H]1OC(=O)O[C@@H](C)OC(=O)[C@H]1[C@@H]2C[C@H](F)[C@@](N)(C(=O)O)[C@@H]21.O=S(=O)(O)c1ccccc1 [MGS0274 besylate] is > 10 µM
